test system: MS2 coat protein; test: apparent KD of MS2 coat protein; higher = weaker reporter binding; details: Eterna round: R107; input ligand: theophylline 20 uM
// apparent KD of MS2 coat protein lookup, one value per entry
metric: apparent KD of MS2 coat protein

>>> value_observed("ACAUGAGGAUCACCCAUGUGUCCUCGAAAACGAGGACCGGUACGGCCGCCACUCGAAAUAAGCUGUUGACGAAAAGUCAGCAGCA [Mat - Exclusion - Trytophan A - D21]")
"173 nM"
>>> value_observed("UGGGUACCGACGGCCGCCACUGACUAUAGACAUGAGGAUCACCCAUGUAGAGAUCCUAGACUACCCAGGACCGGGUCUGGUGCUA [Exclusion Tryptophane B GF6]")
"165 nM"
>>> value_observed("ACAUGUUGGUGGUACCAACGAAGGCGGAAACGAGGACCGGUACGGCCGCCACUCGGCGACAUGAGGAUCACCCAUGUGGUUAAAA [Exclusion - Tryptophan A (Freestyle 3)]")
"134 nM"
>>> value_observed("GUUGGUUUGCGAAGGAGCGGGUAUGUUUUCUACUGGAUCCUAACAUGAGGAUCACCCAUGUCCCAGGUAGGUCGCGCGGGCUUUG [12.aA]")
"75.2 nM"
>>> value_observed("UGAACAUGAGGAUCACCCAUGUAGAGGGAAGGAGCGUCGAAGAAGACAGGUAGGUCGCCCAGAAAGAAAUCCUCAUGGAUAAGAA [Same State Arginine A GF2]")
"152 nM"
>>> value_observed("GAUAGUUGAUGGGAUACCAGCGUGCACAUGAGGAUCACCCAUGUGGUUCGUGUACGACGGCGCCCUUGGCAGCCCAUAUUGUGUA [#13 Same State - Theophylline B]")
"116 nM"
>>> value_observed("UUAUGAUGUUCCGAUACCAGCCAUGUGGUUCUAACUUAACAUGAGGAUCACCCAUGUACCGGCCCUUGGCAGCGGAUGUGGAUUA [Flamini]")
"14.8 nM"
>>> value_observed("UGUUUCGCGGGCGAUACCAGCUUGAUCGUACUGGCCUGGUACAUGAGGAUCACCCAUGUAAGCCCUUGGCAGCGCGCGCGAGACG [#1 Exclusion - Theophylline B Attempt #3 (HarryS)]")
"18.9 nM"
>>> value_observed("AGUGUUAUAACUGAUACCAGACCUUUGCUUAUACAUGAGGAUCACCCAUGUAAAAUGGCGGUCCCUUGGCAGCAGAGAAUACGCA [#09 Same State - Theophylline B]")
"57 nM"
>>> value_observed("AGAUAACAUGGUUUAAUAAGAUAAACUGAUACCAGUGUAUAUAAUCACCCUUGGCAGCAGCAACAUGAGGAUCACCCAUGUAAUA [JR_SSTheophyA_Sub014]")
"19.6 nM"
>>> value_observed("AUGCCUAGUGGAAGGAGCGAGGGUCUUCCCAACAUGAGGAUCACCCAUGUUCUUUUACACCCUCAGGUAGGUCGCCAUUGGGACA [Tilexete]")
"107 nM"
>>> value_observed("CCUCAAUAGACGGCCGCCACUGAGACAUGAGGAUACAUGAGGAUCACCCAUGUGGGUGUGUCACGCAGGACCGGGUCAAGACCCG [Tryp B SS t2]")
"497 nM"
>>> value_observed("GGUGGAGGCGUGGGACUUGUCUGAACGGAUACCAGCCACAUCACGGGCCCUUGGCAGCUGUACAUGAGGAUCACCCAUGUCGGUC [Atestevete]")
"45.2 nM"
>>> value_observed("UUACCGUAAGGUAUACCGGUCUACAAUAAUCGAGGACCGGUACGGCCGCCACUCGAUGUGUAAUCACAUGAGGAUCACCCAUGUA [Tryptophan A 19]")
"27.7 nM"
>>> value_observed("GGGACUAGAUCGGCCGCCACUGAUGGGACAUGAGGAUCACCCAUGUACGAAGUGAUCCAAUAAAUCAGGACCGGGAUCACUUGUA [Tryp B Ex t6]")
"137 nM"
>>> value_observed("UAUACAUGAGGAUCACCCAUGUGCCAUGAUACCAGACAUGAAAAUGUCCCUUGGCAGCAUGGGAAAUGUAUAGCGGGAAACCCGA [Slatina]")
"201 nM"
>>> value_observed("AGUAUUGGAAACAGUACUAGUGAUCCGGUCCGAGGACCGGUACGGCCGCCACUCGAUUUAAAUAAACAUGAGGAUCACCCAUGUA [Ex Tryptophan A 14]")
"17.2 nM"
>>> value_observed("GAGCUCGUGGACUGGCGUGCUCCGCUCCGUCGAGGACCGGUACGGCCGCCACUCGACAUGAGGAUCACCCAUGUGUGAGCUCGCU [#1 Exclusion - Tryptophan A Attempt #21 (HarryS)]")
"185 nM"
>>> value_observed("GGGCGAGUGGCGCGGCGUGCUCCGCUCCGUCGAGGACCGGUACGGCCGCCACUCGACAUGAGGAUCACCCAUGUGCGAGCUCGCG [#1 Exclusion - Tryptophan A Attempt #12 (HarryS)]")
"71.7 nM"
>>> value_observed("AUACAUGAGGAUCACCCAUGUCAUUCAGAAGGAGCGUCAUUUUAGACAGGUAGGUCGCUGAUAUUAUUCUUAUACUUUAUGUUUA [JR_ExcArginiA_Sub022]")
"26 nM"
>>> value_observed("GUUACCAUGUCGGCCGCCACUAACAAGGUUAUGGCAAGUCUACACGACAUGAGGAUCACCCAUGUUAGGACCGGGACCCAUACCC [theeternabot_exclusion_MS2_Trp_B_44]")
"17.5 nM"
>>> value_observed("UACUUACAUGAGGAUCACCCAUGUGGCGAAGGAGCGGCAUGAGGGCCAGGUAGGUCGCGCCAACAUACAUACAUGAGGAUCUCCC [Same State Arginine A 4]")
"127 nM"
>>> value_observed("GAAAGAUGAGGCGGCAGUACCGAUGUCGAUACCAGCAUGAACAAAUGCCCUUGGCAGCGACAUGAGGAUCACCCAUGUAUCUGCG [Reraatlaan]")
"16.1 nM"
